- System: UO-31 renal
- measurement_protocol: NCI tumour cell line growth inhibition, 48 h; in the data active means GI50 below about 0.43 µM; inactive means the rest
Classes used: active, inactive

{"compound": "NC(=O)c1c(Br)n(C2OC(CO)C(O)C2O)c2ncnc(N)c12 (stereo unspecified)", "assigned_category": "inactive"}
{"compound": "Nc1cc(N)c2nc(-c3ccccc3)c(NCCc3ccc(Cl)c(Cl)c3)nc2c1", "assigned_category": "inactive"}
{"compound": "O=[N+]([O-])c1cccc2nc3ccccc3c(NCCN(CCO)CCO)c12", "assigned_category": "active"}
{"compound": "COc1ccc(C(=O)c2cc(OC)c(OC)c(OC)c2)cc1OC(=O)C(Cl)(Cl)Cl", "assigned_category": "inactive"}
{"compound": "Cc1ccc(C2C3Cc4ccccc4C3=NN2c2ccc(S(=O)(=O)NC(=O)NC3CCCCC3)cc2)cc1 (stereo unspecified)", "assigned_category": "inactive"}
{"compound": "COC(=O)C1=C(C(=O)OC)SC(=C(Cl)C(=S)Oc2ccccc2N)S1", "assigned_category": "inactive"}

Measured values drawn from PubChem BioAssay (NCI) for this set.
